Reported pIC50 values for the following compounds.
- test method notes: The concentration of compound required to prevent 50 percent of cells from adhering to MAdCAM-1
pIC50: −log10 of the molar value. Peptide text beside a SMILES is read from it.
observable: pIC50

[
  {
    "compound": "CC(=O)N[C@@H](CC(C)C)C(=O)N[C@@H](CC(=O)O)C(=O)N[C@H](C(N)=O)[C@@H](C)O (Ac-Leu-Asp-Thr-NH2)",
    "sign": "=",
    "experimental result": 3.56
  },
  {
    "compound": "CC(=O)N[C@@H](CC(C)C)C(=O)N[C@@H](CC(=O)O)C(=O)N[C@H](C(N)=O)C(C)C (Ac-Leu-Asp-Val-NH2)",
    "sign": "=",
    "experimental result": 3.90
  },
  {
    "compound": "CC(=O)N[C@@H](CC(C)C)C(=O)NCC(CC(=O)O)S(=O)(=O)N[C@H](C(N)=O)C(C)C (some centres undefined)",
    "sign": "=",
    "experimental result": 3.66
  },
  {
    "compound": "CC(=O)N[C@@H](CC(C)C)C(=O)NCC(CC(=O)O)S(=O)(=O)N[C@H](C(N)=O)[C@@H](C)O (some centres undefined)",
    "sign": "<",
    "experimental result": 3.30
  }
]
